- assayProtocol: chemical genetic growth profiling, strain panel (AID 1159580);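 note: tested at 20 µM; growth read once vehicle control cultures reached saturation at 30 °C; 1 = growth at the plate median or of vehicle wells; lower values mean less growth of the strain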
- conditionSet: S. cerevisiae deletion strains, growth OD, locus YDR137W, strain rgp1, hits give low values
Among all 5,500 compounds or so, about 2,000 (36%) were called active. Roughly 18% stayed inconclusive and do not appear here. Some of the results follow.
Here the recorded normalized growth is given for each entry.

molecule: COc1ccc2c3c1O[C@H]1C[C@@H](O)C=C[C@@]31CCN(C)C2
normalized growth: 1.03 (inactive)

molecule: CCCCNc1cc(C(=O)O)cc(S(N)(=O)=O)c1Oc1ccccc1
normalized growth: 1.01 (inactive)

molecule: c1ccc(N=Nc2ccccc2)cc1
normalized growth: 0.911 (inactive)

molecule: CCOC(=O)[C@H](CCc1ccccc1)N[C@H]1CCc2ccccc2N(CC(=O)O)C1=O
normalized growth: 0.992 (inactive)

molecule: CN1CCC(=C2c3ccccc3CCc3sccc32)CC1
normalized growth: 1.08 (inactive)

molecule: CC(CCc1ccccc1)NC(C)C(O)c1ccc(O)cc1 (centres undefined)
normalized growth: 0.989 (inactive)

molecule: CC1=C(C(C)O)C2=NC1C=c1[nH]c(c(C)c1C(C)O)=Cc1[nH]c(c(CCC(=O)O)c1C)C=c1[nH]c(c(C)c1CCC(=O)O)=C2 (centres undefined)
normalized growth: 1.04 (inactive)

molecule: CCC(=O)O[C@H]1[C@H](O[C@@H]2[C@@H](C)[C@H](O[C@H]3C[C@@](C)(OC)[C@@H](O)[C@H](C)O3)[C@@H](C)C(=O)O[C@H](CC)[C@@](C)(O)[C@H](O)[C@@H](C)C(=O)[C@H](C)C[C@@]2(C)O)O[C@H](C)C[C@@H]1N(C)C
normalized growth: 1.18 [resistant] (active)

molecule: CC(NCCc1ccc(O)cc1)C(O)c1ccc(O)cc1 (centres undefined)
normalized growth: 0.982 (inactive)

molecule: CC1=C(/C=C/C(C)=C/C=C/C(C)=C/C=C/C=C(C)/C=C/C=C(C)/C=C/C2=C(C)C(=O)CCC2(C)C)C(C)(C)CCC1=O
normalized growth: 1.03 (inactive)

molecule: COc1ccc2c(c1)O[C@@H]1COc3cc(OC)c(OC)cc3[C@@H]1C2=O
normalized growth: 0.995 (inactive)

molecule: CC(Oc1ccccc1)C(=O)N[C@@H]1C(=O)N2[C@@H]1SC(C)(C)[C@@H]2C(=O)O (some centres undefined)
normalized growth: 1 (inactive)

molecule: COc1cc(NC(C)CCCN)c2ncccc2c1 (centres undefined)
normalized growth: 1.03 (inactive)

molecule: CCN(CC)CCCC(C)Nc1c2ccc(Cl)cc2nc2ccc(OC)cc12 (centres undefined)
normalized growth: 1.04 (inactive)

molecule: COc1ccc2c(c1OC)C(=O)O[C@@H]2[C@H]1c2cc3c(cc2CCN1C)OCO3
normalized growth: 0.969 (inactive)

molecule: CCN(CC)CCNC(=O)c1cc(Br)c(N)cc1OC
normalized growth: 1.04 (inactive)

molecule: NC(=O)c1ccc[n+]([C@@H]2O[C@H](COP(=O)([O-])OP(=O)(O)OC[C@H]3O[C@@H](n4cnc5c(N)ncnc54)[C@H](O)[C@@H]3O)[C@@H](O)[C@H]2O)c1
normalized growth: 1.07 (inactive)

molecule: CN(C)C(=S)SSC(=S)N(C)C
normalized growth: 0.0857 (active)

molecule: O=C(O)c1cc2ccccc2c(Cc2c(O)c(C(=O)O)cc3ccccc23)c1O
normalized growth: 1.04 (inactive)

molecule: CC(C)OC(=O)C(C)(C)Oc1ccc(C(=O)c2ccc(Cl)cc2)cc1
normalized growth: 0.943 (inactive)

molecule: COc1ccc2cc([C@H](C)CO)ccc2c1
normalized growth: 1.03 (inactive)

molecule: COc1cc2c(cc1OC)[C@@H]1C(=O)c3ccc4c(c3O[C@@H]1CO2)C=CC(C)(C)O4
normalized growth: 0.88 (inactive)

molecule: C[C@H]1CC2C([C@@H](O)C[C@@]3(C)C2CC[C@]3(O)C(=O)CO)[C@@]2(C)C=CC(=O)C=C12 (some centres undefined)
normalized growth: 0.993 (inactive)

molecule: COc1ccc2cc([C@H](C)C(=O)O)ccc2c1
normalized growth: 0.932 (inactive)

molecule: Oc1cc(Cl)ccc1Oc1ccc(Cl)cc1Cl
normalized growth: 0.0997 (active)

molecule: CCCCCCCCCCCCCCCC[N+](C)(C)C
normalized growth: 0.0808 (active)

molecule: Cc1cccc(C)c1OCC(C)N (centres undefined)
normalized growth: 1.01 (inactive)

molecule: CN[C@@H](C)[C@@H](O)c1ccccc1
normalized growth: 0.982 (inactive)

molecule: COc1cc2c(cc1OC)[C@@H]1C(=O)c3ccc4oc(C(C)C)cc4c3O[C@@H]1CO2
normalized growth: 0.992 (inactive)

molecule: NC(=O)C(c1ccccc1)(c1ccccc1)C1CCN(CCc2ccc3c(c2)CCO3)C1 (centres undefined)
normalized growth: 1.1 (inactive)

molecule: CC(C)(O)[C@@H]1[C@H]2OC(=O)[C@@H]1[C@]1(O)C[C@H]3O[C@]34C(=O)O[C@H]2[C@]14C
normalized growth: 1 (inactive)

molecule: CC(=O)NC1SCCC1=O (centres undefined)
normalized growth: 1.01 (inactive)

molecule: CN1CCC(=C2c3ccccc3Sc3ccccc32)CC1
normalized growth: 1.2 [resistant] (active)

molecule: COP(=O)(OC)OC=C(Cl)Cl
normalized growth: 0.982 (inactive)

molecule: COCCc1ccc(OCC(O)CNC(C)C)cc1 (centres undefined)
normalized growth: 0.942 (inactive)

molecule: CCOC(=O)CCC(=O)O[C@H]1[C@H](O[C@@H]2[C@@H](C)[C@H](O[C@H]3C[C@@](C)(OC)[C@@H](O)[C@H](C)O3)[C@@H](C)C(=O)O[C@H](CC)[C@@](C)(O)[C@H](O)[C@@H](C)C(=O)[C@H](C)C[C@@]2(C)O)O[C@H](C)C[C@@H]1N(C)C
normalized growth: 1.01 (inactive)

molecule: CC1=C(C/C=C(\C)CCC[C@H](C)CCC[C@H](C)CCCC(C)C)C(=O)c2ccccc2C1=O
normalized growth: 0.772 (active)

molecule: COc1ccc2c(c1OC)C(=O)O[C@H]2[C@H]1c2cc3c(cc2CCN1C)OCO3
normalized growth: 0.988 (inactive)

molecule: CC1=C(CC(=O)O)c2cc(F)ccc2/C1=C\c1ccc(S(C)=O)cc1 (centres undefined)
normalized growth: 1.02 (inactive)
